Assay: TROY pathway blockers in reporter cells – Q293 LMP1-TROYcd cells, NF-kB luciferase, uHTS, primary screen (AID 1347056)
Details: 4 h, at 10 µM, hits give high values
In all, about 360,000 compounds went through this assay and about 3,600 (1%) were called active. For the sample, actives were picked, then their nearest neighbours and some compounds at random.
# inhibition listing for each entry below
Only the number, expressed in %, is required.

# annotated cases, reported inhibition shown
compound: CC(=O)Nc1ccc(C(=O)C(Cc2ccccc2)N(C)C)cc1 (stereo not drawn)
inhibition [%]: 0.62

compound: CCC(C)(O)C(=O)OC1C(=O)OC2CC3C(C)=CC(=O)C(O)C3(C)C3C4(O)OCC23C1C(C)C4O (stereo not drawn)
inhibition [%]: 83.5

Turning to the following compound.
Query: I have this compound here, CCOC(=O)[C@]12Cc3ccccc3[C@H]1N(C1CCCCC1)C(=O)c1cc(OC)ccc12 , and I need its recorded inhibition.
Response: 36.6
